The reported numbers originate from paper PMC7948503.

# assay_system: T1, Rluc-ADGRG2-ΔGPS-β wildtype (mouse, UniProt Q8CJ12-3 38-995)
# T1 construct: also called WT; ADGRG2-ΔGPS-β WT; source: HEK293, transfected, on cells; not shown: Rluc, N-terminal, kept
# T1 sequence (Q8CJ12 other isoform, or with tags, fused parts or gaps mutant): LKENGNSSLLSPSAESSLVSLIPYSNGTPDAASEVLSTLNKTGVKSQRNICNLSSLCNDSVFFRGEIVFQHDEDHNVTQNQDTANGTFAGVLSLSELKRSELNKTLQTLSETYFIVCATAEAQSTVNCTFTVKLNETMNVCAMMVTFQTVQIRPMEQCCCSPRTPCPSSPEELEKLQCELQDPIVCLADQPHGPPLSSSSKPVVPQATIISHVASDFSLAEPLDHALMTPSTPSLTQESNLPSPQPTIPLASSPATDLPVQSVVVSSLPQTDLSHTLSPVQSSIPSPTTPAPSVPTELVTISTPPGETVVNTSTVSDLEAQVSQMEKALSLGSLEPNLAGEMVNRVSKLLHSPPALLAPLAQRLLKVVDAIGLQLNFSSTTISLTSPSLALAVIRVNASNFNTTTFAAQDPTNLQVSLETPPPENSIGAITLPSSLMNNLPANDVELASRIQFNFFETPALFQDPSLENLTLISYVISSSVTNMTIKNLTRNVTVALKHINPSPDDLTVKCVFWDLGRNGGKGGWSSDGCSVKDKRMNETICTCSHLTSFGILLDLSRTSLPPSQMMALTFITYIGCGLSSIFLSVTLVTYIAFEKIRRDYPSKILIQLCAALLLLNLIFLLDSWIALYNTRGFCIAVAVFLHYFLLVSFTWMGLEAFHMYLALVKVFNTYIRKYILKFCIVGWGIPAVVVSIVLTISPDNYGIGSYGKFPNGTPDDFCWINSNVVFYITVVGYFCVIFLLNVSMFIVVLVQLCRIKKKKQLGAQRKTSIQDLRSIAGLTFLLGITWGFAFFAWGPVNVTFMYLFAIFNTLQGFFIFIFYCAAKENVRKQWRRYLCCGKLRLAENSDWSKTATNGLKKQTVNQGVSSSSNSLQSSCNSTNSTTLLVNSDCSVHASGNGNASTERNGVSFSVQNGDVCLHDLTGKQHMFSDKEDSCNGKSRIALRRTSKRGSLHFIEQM
# test_description: FRET or BRET; HEK293 cells transfected with Rluc-ADGRG2-ΔGPS-β WT or mutants, stimulated by increasing concentrations of FITC-conjugated VPM-p15; saturation curves fitted with GraphPad; each experiment repeated 6 times
# protocol_conditions: one partner purified
Non-standard residues stand in square brackets, D forms with d. Primed or numbered codes have the meaning given here. No end group written: not given here. Phe(4-Me) = Cc1ccc(C[C@H](N)C(=O)O)cc1; FITC′ = not defined here
measured_endpoint: EC50 (nM)
Numbers only here, please. The scale is nM.

Incoming: Recall and state the measured EC50 for VS[Phe(4-Me)]GILLDLSRTSLP-{FITC′} [FITC-conjugated VPM-p15 (ADGRG2 Stachel peptide p15 T1V/F3Phe(4-Me))] .
Outgoing: 936
